Tested on: 186277-243-T-J2-PDC complex spheroid viability
Experiment: Anticancer human tumor 186277-243-T-J2-PDC patient-derived colon adenocarcinoma cell line growth inhibition [GQUAD]
Details: second compound 0.316 µM; first compound 0.0316 µM; active compounds read low
Source text: DNA G-quadruplex Stabilizer Agents in Combinations in Complex Spheroids A high-throughput screen of multi-cell type tumor spheroids was designed to identify active combinations of DNA G-quadruplex stabilizer agents and targeted small molecules. […] Compounds. […] If the clinical Cmax for an agent had not been determined, the highest concentration tested was 10 microM. […]
For each of the compounds below, state its viability, T/C.
Numbers only here, please. The scale is %.

May I ask what viability, T/C has been recorded for C=CC(=O)N1CCN(c2nc(=O)n(-c3c(C)ccnc3C(C)C)c3nc(-c4c(O)cccc4F)c(F)cc23)C(C)C1 (stereo not drawn) + Cc1cnc(CNC(=O)c2c(=O)c3ccc(N4CCCN(C)CC4)nc3n3c2sc2ccccc23)cn1 ? 81.5

Now the same for CC(C)(O)C1CCC(Nc2ccc3ncc(-c4cccc(C(F)(F)F)c4)n3n2)CC1 (stereo not drawn) + Cc1[nH]c2ccc(F)cc2c1-c1nc2c3cccnc3c3ncccc3c2[nH]1 90

Now the same for CC1COCCN1c1cc(-c2ccnn2C)c2ccnc(-c3ccn[nH]3)c2n1 (stereo not drawn) + CN(C)c1ccc(Nc2c3ccc(NC(=O)CCN4CCCC4)cc3nc3cc(NC(=O)CCN4CCCC4)ccc23)cc1 76.5

====

System: 186277-243-T-J2-PDC complex spheroid viability
Assay: Anticancer human tumor 186277-243-T-J2-PDC cell line growth inhibition [GQUAD]; active = viability on the fitted dose curve at most 10% of control; inactive = the rest;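 note: spheroids exposed to drugs for 7 days; 100% = DMSO vehicle control viability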
Conditions: second compound 0.0316 µM; first compound 0.1 µM
Please reply with one of these outcomes: yes (active), no (inactive)

# lookup: test call for CC1COCCN1c1cc(-c2ccnn2C)c2ccnc(-c3ccn[nH]3)c2n1 (centres undefined) + CN(C)c1ccc(Nc2c3ccc(NC(=O)CCN4CCCC4)cc3nc3cc(NC(=O)CCN4CCCC4)ccc23)cc1 no

Now the same for CC(=O)O[C@H]1C(=O)[C@@]2(C)[C@H]([C@H](OC(=O)c3ccccc3)[C@]3(O)C[C@H](OC(=O)[C@H](O)[C@@H](NC(=O)c4ccccc4)c4ccccc4)C(C)=C1C3(C)C)[C@]1(OC(C)=O)CO[C@@H]1C[C@@H]2O + CN(C)c1ccc(Nc2c3ccc(NC(=O)CCN4CCCC4)cc3nc3cc(NC(=O)CCN4CCCC4)ccc23)cc1 yes

Now the same for CC(C)n1c(=O)n(C)c2cnc3cc(F)c(-c4ccc(OCCCN5CCCCC5)nc4)cc3c21 + CN(C)c1ccc(Nc2c3ccc(NC(=O)CCN4CCCC4)cc3nc3cc(NC(=O)CCN4CCCC4)ccc23)cc1 no

Now the same for CC1COCCN1c1cc(C2(S(C)(=N)=O)CC2)nc(-c2ccnc3[nH]ccc23)n1 (centres undefined) + Cc1[nH]c2ccc(F)cc2c1-c1nc2c3cccnc3c3ncccc3c2[nH]1 no

Now the same for C=CC(=O)N1CCN(c2nc(=O)n(-c3c(C)ccnc3C(C)C)c3nc(-c4c(O)cccc4F)c(F)cc23)C(C)C1 (centres undefined) + Cc1cnc(CNC(=O)c2c(=O)c3ccc(N4CCCN(C)CC4)nc3n3c2sc2ccccc23)cn1 no

Now the same for CC(C)n1c(=O)n(C)c2cnc3cc(F)c(-c4ccc(OCCCN5CCCCC5)nc4)cc3c21 + Cc1cnc(CNC(=O)c2c(=O)c3ccc(N4CCCN(C)CC4)nc3n3c2sc2ccccc23)cn1 no

Now the same for C#Cc1c(F)ccc2cc(O)cc(-c3ncc4c(N5CC6CCC(C5)N6)nc(OCC56CCCN5CC(F)C6)nc4c3F)c12 (centres undefined) + Cc1[nH]c2ccc(F)cc2c1-c1nc2c3cccnc3c3ncccc3c2[nH]1 no

Now the same for O=C(c1cc(Cc2n[nH]c(=O)c3ccccc23)ccc1F)N1CCN(C(=O)C2CC2)CC1 + CN(C)c1ccc(Nc2c3ccc(NC(=O)CCN4CCCC4)cc3nc3cc(NC(=O)CCN4CCCC4)ccc23)cc1 no

Now the same for CC(C)(O)C1CCC(Nc2ccc3ncc(-c4cccc(C(F)(F)F)c4)n3n2)CC1 (centres undefined) + CN(C)c1ccc(Nc2c3ccc(NC(=O)CCN4CCCC4)cc3nc3cc(NC(=O)CCN4CCCC4)ccc23)cc1 no

Now the same for C#Cc1c(F)ccc2cc(O)cc(-c3ncc4c(N5CC6CCC(C5)N6)nc(OCC56CCCN5CC(F)C6)nc4c3F)c12 (centres undefined) + Cc1cnc(CNC(=O)c2c(=O)c3ccc(N4CCCN(C)CC4)nc3n3c2sc2ccccc23)cn1 no

Now the same for COc1ccc([C@@H](O)c2cc(-c3ncnc4cc(N5CCOCC5)ccc34)c(F)cc2Cl)nn1 + CN(C)c1ccc(Nc2c3ccc(NC(=O)CCN4CCCC4)cc3nc3cc(NC(=O)CCN4CCCC4)ccc23)cc1 no

Now the same for O=C(c1cc(Cc2n[nH]c(=O)c3ccccc23)ccc1F)N1CCN(C(=O)C2CC2)CC1 + Cc1cnc(CNC(=O)c2c(=O)c3ccc(N4CCCN(C)CC4)nc3n3c2sc2ccccc23)cn1 no

Now the same for O=C(c1cc(Cc2n[nH]c(=O)c3ccccc23)ccc1F)N1CCN(C(=O)C2CC2)CC1 + Cc1[nH]c2ccc(F)cc2c1-c1nc2c3cccnc3c3ncccc3c2[nH]1 no

Now the same for COc1cccc2c1C(=O)c1c(O)c3c(c(O)c1C2=O)CC(O)(C(=O)CO)CC3OC1CC(N)C(O)C(C)O1 (centres undefined) + Cc1cnc(CNC(=O)c2c(=O)c3ccc(N4CCCN(C)CC4)nc3n3c2sc2ccccc23)cn1 no

Now the same for O=C(NO)c1cnc(N2CCN(S(=O)(=O)c3ccc4ccccc4c3)CC2)nc1 + Cc1[nH]c2ccc(F)cc2c1-c1nc2c3cccnc3c3ncccc3c2[nH]1 no

Now the same for Cc1cccc(N(C)C(=O)C2C(O)CCN2c2nc(C)cc(C(F)(F)F)c2C#N)c1 (centres undefined) + CN(C)c1ccc(Nc2c3ccc(NC(=O)CCN4CCCC4)cc3nc3cc(NC(=O)CCN4CCCC4)ccc23)cc1 no

Now the same for C=CC(=O)N1CCN(c2nc(=O)n(-c3c(C)ccnc3C(C)C)c3nc(-c4c(O)cccc4F)c(F)cc23)C(C)C1 (centres undefined) + Cc1[nH]c2ccc(F)cc2c1-c1nc2c3cccnc3c3ncccc3c2[nH]1 no

Now the same for CC(=O)O[C@H]1C(=O)[C@@]2(C)[C@H]([C@H](OC(=O)c3ccccc3)[C@]3(O)C[C@H](OC(=O)[C@H](O)[C@@H](NC(=O)c4ccccc4)c4ccccc4)C(C)=C1C3(C)C)[C@]1(OC(C)=O)CO[C@@H]1C[C@@H]2O + Cc1cnc(CNC(=O)c2c(=O)c3ccc(N4CCCN(C)CC4)nc3n3c2sc2ccccc23)cn1 no

Now the same for CC1COCCN1c1cc(C2(O)CC3CCC(C2)O3)c2cnn(-c3ccn[nH]3)c2n1 (centres undefined) + Cc1[nH]c2ccc(F)cc2c1-c1nc2c3cccnc3c3ncccc3c2[nH]1 no
